- tgt: HLA-B*40:01
- experimentNotes: IEDB peptide-MHC binding, purified MHC/competitive/radioactivity; filed as Kd, often an IC50 or EC50 that approximates it; bounds were set here for any values at or beyond the usual limits of such assays
- appliedConditions: source organism: Dengue virus 2 Jamaica/1409/1983
pKd: −log10 of the molar value.
# pKd per record follows

- inputSequence: "SENEVKLTI"
  pKd: 6.43
- inputSequence: "MEKASFIEV"
  pKd: 5.92
- inputSequence: "LEFFLIVLL"
  pKd: 6.91

====

- tgt: HLA-A*26:01
- experimentNotes: IEDB peptide-MHC binding, purified MHC/direct/fluorescence; filed as Kd, often an IC50 or EC50 that approximates it; bounds were set here for any values at or beyond the usual limits of such assays
- appliedConditions: source organism: Klebsiella pneumoniae
pKd: −log10 of the molar value.

- inputSequence: "LLQEKYGLI"
  pKd: "≤ 4.70"

====

- tgt: HLA-A*29:02
- experimentNotes: IEDB peptide-MHC binding, purified MHC/direct/fluorescence; filed as Kd, often an IC50 or EC50 that approximates it; bounds were set here for any values at or beyond the usual limits of such assays
- appliedConditions: source organism: Mammarenavirus juninense
readoutName: Kd

- inputSequence: "QLAKRSEIL"
  tgt: "HLA-A*29:02"
  result: "≥ 20 µM"

====

- tgt: HLA-A*01:01
- experimentNotes: IEDB peptide-MHC binding, purified MHC/direct/fluorescence; filed as Kd, often an IC50 or EC50 that approximates it; bounds were set here for any values at or beyond the usual limits of such assays
- appliedConditions: source organism: Corynebacterium glutamicum

- inputSequence: "WPALSSIAA"
  Kd: "≥ 20 µM"

====

- tgt: HLA-A*24:02
- experimentNotes: IEDB peptide-MHC binding, purified MHC/competitive/fluorescence; bounds were set here for any values at or beyond the usual limits of such assays
- appliedConditions: source organism: Vaccinia virus
pIC50: −log10 of the molar value.

- inputSequence: "KDVSYNDYF"
  tgt: "HLA-A*24:02"
  pIC50: 4.38

====

- tgt: HLA-A*11:01
- experimentNotes: IEDB peptide-MHC binding, purified MHC/direct/fluorescence; filed as Kd, often an IC50 or EC50 that approximates it; bounds were set here for any values at or beyond the usual limits of such assays
- appliedConditions: source organism: Orthohantavirus dobravaense

- inputSequence: "VTYDYIIPK"
  unitsText: "nM"
  Kd: 1.2

====

- tgt: HLA-A*02:06
- experimentNotes: IEDB peptide-MHC binding, purified MHC/competitive/fluorescence; filed as Kd, often an IC50 or EC50 that approximates it; bounds were set here for any values at or beyond the usual limits of such assays
- appliedConditions: source organism: Salmonella enterica subsp. enterica serovar Enteritidis
pKd: −log10 of the molar value.

- inputSequence: "MGKTITDVK"
  pKd: 6.54

====

- tgt: HLA-B*40:01
- experimentNotes: IEDB peptide-MHC binding, purified MHC/competitive/radioactivity; filed as Kd, often an IC50 or EC50 that approximates it; bounds were set here for any values at or beyond the usual limits of such assays
- appliedConditions: source organism: Dengue virus 3 Martinique/1243/1999
pKd: −log10 of the molar value.
# pKd per record follows

- inputSequence: "GESSPSPTV"
  tgt: "HLA-B*40:01"
  pKd: 8.02
- inputSequence: "WENNIKLTVV"
  tgt: "HLA-B*40:01"
  pKd: 6.35

====

- tgt: HLA-A*01:01
- experimentNotes: IEDB peptide-MHC binding, purified MHC/direct/fluorescence; filed as Kd, often an IC50 or EC50 that approximates it; bounds were set here for any values at or beyond the usual limits of such assays
- appliedConditions: source organism: Klebsiella pneumoniae
pKd: −log10 of the molar value.
readoutName: pKd

- inputSequence: "LLQEKYGLI"
  result: "≤ 4.70"

====

- tgt: HLA-A*23:01
- experimentNotes: IEDB peptide-MHC binding, purified MHC/competitive/radioactivity; filed as Kd, often an IC50 or EC50 that approximates it; bounds were set here for any values at or beyond the usual limits of such assays
- appliedConditions: source organism: Mammarenavirus machupoense

- inputSequence: "YKELCDAVY"
  Kd: "≥ 40.5 µM"
- inputSequence: "EMICFHEFL"
  Kd: "6.96 µM"
- inputSequence: "CTNFKTQLV"
  Kd: "≥ 77.7 µM"
- inputSequence: "QCGDPSSFEY"
  Kd: "≥ 68.8 µM"

====

- tgt: HLA-A*02:01
- experimentNotes: IEDB peptide-MHC binding, purified MHC/competitive/fluorescence; bounds were set here for any values at or beyond the usual limits of such assays
- appliedConditions: source organism: Sudan ebolavirus
readoutName: IC50 (µM)

- inputSequence: "FVRLDRPHT"
  tgt: "HLA-A*02:01"
  unitsText: "µM"
  qual: "≥"
  measuredNumber: 101
- inputSequence: "GILGSLGLR"
  tgt: "HLA-A*02:01"
  unitsText: "µM"
  qual: "="
  measuredNumber: 3.62
- inputSequence: "HMQISTIGI"
  tgt: "HLA-A*02:01"
  unitsText: "µM"
  qual: "="
  measuredNumber: 4.09
- inputSequence: "LQLFLRATT"
  tgt: "HLA-A*02:01"
  unitsText: "µM"
  qual: "≥"
  measuredNumber: 125
- inputSequence: "KAFSMPLGV"
  tgt: "HLA-A*02:01"
  unitsText: "µM"
  qual: "="
  measuredNumber: 9.08
- inputSequence: "NITTAVKTV"
  tgt: "HLA-A*02:01"
  unitsText: "µM"
  qual: "="
  measuredNumber: 22.8

====

- tgt: HLA-A*02:19
- experimentNotes: IEDB peptide-MHC binding, purified MHC/direct/fluorescence; filed as Kd, often an IC50 or EC50 that approximates it; bounds were set here for any values at or beyond the usual limits of such assays
- appliedConditions: source organism: Salmonella enterica subsp. enterica serovar Berta
pKd: −log10 of the molar value.
readoutName: pKd

- inputSequence: "HQDDGQPRL"
  readoutName: "pKd"
  result: "≤ 4.70"

====

- tgt: HLA-A*03:01
- experimentNotes: IEDB peptide-MHC binding, purified MHC/direct/fluorescence; filed as Kd, often an IC50 or EC50 that approximates it; bounds were set here for any values at or beyond the usual limits of such assays
- appliedConditions: source organism: Influenza A virus (A/duck/Mongolia/47/2001(H7N1))
pKd: −log10 of the molar value.

- inputSequence: "NESGRLIDF"
  pKd: "≤ 4.70"

====

- tgt: HLA-B*46:01
- experimentNotes: IEDB peptide-MHC binding, purified MHC/competitive/fluorescence; filed as Kd, often an IC50 or EC50 that approximates it; bounds were set here for any values at or beyond the usual limits of such assays
- appliedConditions: source organism: Cryptosporidium parvum Iowa II
readoutName: Kd

- inputSequence: "SGLPGIFIV"
  readoutName: "Kd"
  result: "≥ 20 µM"

====

- tgt: HLA-B*40:01
- experimentNotes: IEDB peptide-MHC binding, purified MHC/direct/fluorescence; filed as Kd, often an IC50 or EC50 that approximates it; bounds were set here for any values at or beyond the usual limits of such assays
- appliedConditions: source organism: Klebsiella pneumoniae
pKd: −log10 of the molar value.
readoutName: pKd

- inputSequence: "LLQEKYGLI"
  result: "≤ 4.70"

====

- tgt: HLA-A*02:01
- experimentNotes: IEDB peptide-MHC binding, purified MHC/competitive/fluorescence; filed as Kd, often an IC50 or EC50 that approximates it; bounds were set here for any values at or beyond the usual limits of such assays
- appliedConditions: source organism: Orthohantavirus sinnombreense

- inputSequence: "YRTLGVFRY"
  Kd: "≥ 20 µM"

====

- tgt: HLA-B*39:01
- experimentNotes: IEDB peptide-MHC binding, purified MHC/competitive/fluorescence; filed as Kd, often an IC50 or EC50 that approximates it; bounds were set here for any values at or beyond the usual limits of such assays
- appliedConditions: source organism: Vibrio cholerae 2740-80
pKd: −log10 of the molar value.

- inputSequence: "YEPEMQAQV"
  pKd: "≤ 4.70"

====

- tgt: HLA-A*31:01
- experimentNotes: IEDB peptide-MHC binding, purified MHC/competitive/radioactivity; filed as Kd, often an IC50 or EC50 that approximates it; bounds were set here for any values at or beyond the usual limits of such assays
- appliedConditions: source organism: Vaccinia virus WR
pKd: −log10 of the molar value.
// NOT MET strictly below 6 in pKd; MET otherwise

- inputSequence: "FISDNKKEY"
  qualitativeLabel: "NOT MET"
- inputSequence: "MLEGETKLY"
  qualitativeLabel: "NOT MET"
- inputSequence: "FIKYVNGWVK"
  qualitativeLabel: "MET"
- inputSequence: "SIPISELSR"
  qualitativeLabel: "NOT MET"
- inputSequence: "VFKDSFLRK"
  qualitativeLabel: "MET"
- inputSequence: "DLIKKSDAKR"
  qualitativeLabel: "MET"
- inputSequence: "DLIKKSDAK"
  qualitativeLabel: "NOT MET"
- inputSequence: "SLFKNVRLLK"
  qualitativeLabel: "MET"
- inputSequence: "NLFSKNILKY"
  qualitativeLabel: "NOT MET"
- inputSequence: "IVTFRERYSY"
  qualitativeLabel: "MET"
- inputSequence: "DIVNGKECCY"
  qualitativeLabel: "NOT MET"
- inputSequence: "QTQTYNIGK"
  qualitativeLabel: "MET"
- inputSequence: "STTDAEACY"
  qualitativeLabel: "NOT MET"
- inputSequence: "DLVKSSFVKK"
  qualitativeLabel: "MET"
- inputSequence: "ITPTIEDDK"
  qualitativeLabel: "NOT MET"
- inputSequence: "LLHCVTESYK"
  qualitativeLabel: "MET"
- inputSequence: "IIVLFQRFLR"
  qualitativeLabel: "MET"
- inputSequence: "DIETAIRAGY"
  qualitativeLabel: "NOT MET"
- inputSequence: "NSCSIGNVTR"
  qualitativeLabel: "MET"
- inputSequence: "DIFVSLVKK"
  qualitativeLabel: "NOT MET"
- inputSequence: "LSSKGLACY"
  qualitativeLabel: "NOT MET"
- inputSequence: "TAIKEVVMAY"
  qualitativeLabel: "NOT MET"
- inputSequence: "KAPNVISSK"
  qualitativeLabel: "MET"
- inputSequence: "ISSVLTILYY"
  qualitativeLabel: "NOT MET"
- inputSequence: "IVTDLENRLK"
  qualitativeLabel: "MET"
- inputSequence: "EARIVDKFGK"
  qualitativeLabel: "MET"
- inputSequence: "RLLHCVTESY"
  qualitativeLabel: "MET"
- inputSequence: "EACYIYKSGK"
  qualitativeLabel: "NOT MET"
- inputSequence: "CLLAISAVY"
  qualitativeLabel: "MET"
- inputSequence: "ILAEYIRHR"
  qualitativeLabel: "MET"
- inputSequence: "QFVDINRNNK"
  qualitativeLabel: "MET"
- inputSequence: "WIKDIMTSTR"
  qualitativeLabel: "MET"
- inputSequence: "ISIISIRPR"
  qualitativeLabel: "MET"
- inputSequence: "CYLDTNIKM"
  qualitativeLabel: "MET"
- inputSequence: "FLELKRGIY"
  qualitativeLabel: "NOT MET"
- inputSequence: "VIILAALFMY"
  qualitativeLabel: "NOT MET"
- inputSequence: "FTSTNDKIK"
  qualitativeLabel: "NOT MET"
- inputSequence: "IVTVTTKDY"
  qualitativeLabel: "NOT MET"
- inputSequence: "AIEKDRLDK"
  qualitativeLabel: "NOT MET"
